assay: Clearance in dog at 3 mg/kg, iv; format: ADME, organism-based, Canis lupus familiaris; details: in vivo

[
  {
    "COMPOUND": "O=C1NCc2nc(-c3c(F)cccc3F)cc(Nc3ccc(C(=O)N4CCCC4)cc3)c21",
    "UNIT": "mL/min/kg",
    "clearance": 5.2
  }
]

###

experiment: Half-life in dog at 3 mg/kg, iv; assay type: ADME, organism-based, Canis lupus familiaris; conditions: in vivo
EXPERIMENTAL_ENDPOINT: half-life (h)

[
  {
    "COMPOUND": "O=C1NCc2nc(-c3c(F)cccc3F)cc(Nc3ccc(C(=O)N4CCCC4)cc3)c21",
    "UNIT": "h",
    "OBS_VALUE": 6.5
  }
]
